tested on: HCT-15 colon; assay: NCI tumour cell line growth inhibition, 48 h
OBSERVED_PROPERTY: TGI

> print(dat)
                                    compound   system.name  test.result
 1  C=CC[C@@]1(C)CCCCCCCCC[C@@](C)(CC=C)C1=O  HCT-15 colon     > 100 µM
 2                    CCCCC#CC#Cc1cccc(=O)o1  HCT-15 colon      39.5 µM
 3  NC(=O)c1[nH]cnc1/N=N/SCC(N)C(=O)O (stereo unspecified)  HCT-15 colon     > 100 µM
 4  O=C(NNC(=O)c1cc(/C=C/c2cccc([N+](=O)[O-])c2)[nH]c(=S)n1)Nc1ccc(Cl)cc1  HCT-15 colon     > 100 µM
 5  O=C(c1ccccc1)c1sc2c(=O)c(C(=O)c3ccccc3)c(C(=O)c3ccccc3)sc2c(=O)c1C(=O)c1ccccc1  HCT-15 colon     > 100 µM
 6    CCOC(=O)c1cc2c(n1Cc1ccccc1)-c1oncc1CC2  HCT-15 colon      56.2 µM
 7  C=CC(C)CCC(C/C=C(\C)CCC=C(C)C)C(=C)CCCC(C)C (stereo unspecified)  HCT-15 colon     > 100 µM
 8  Cc1c(C)c2c(c(N)c1C#N)C(=O)N(CCN1CCNCC1)C2=O  HCT-15 colon     > 100 µM
 9  COc1ccc(-c2ccc(/C=N/n3c(C)nn(CN4CCN(C)CC4)c3=S)o2)c([N+](=O)[O-])c1  HCT-15 colon     > 100 µM
10  COc1ccccc1S(=O)(=O)Nc1ccc2c(c1)CN(C)C(=O)N2  HCT-15 colon     > 100 µM
11     N=C(N)SCc1cccc2c(=O)cc(-c3ccccc3)oc12  HCT-15 colon    > 65.7 µM
12  Cc1ccc(S(=O)(=O)Oc2nc3ccccc3nc2N(S(=O)(=O)c2ccc(C)cc2)S(=O)(=O)c2ccc(C)cc2)cc1  HCT-15 colon     > 100 µM
13  CCCCCC/C=C\CCCCCCCCCC1=CC(=O)C=C(OC)C1=O  HCT-15 colon      11.1 µM
14  CCOC(=O)C1=C(C)N(NC(N)=O)C2(O)CCCC(=O)C12C (stereo unspecified)  HCT-15 colon     > 100 µM
15  Cc1cc(C)c(S(=O)(=O)ONC(=O)OC(C)(C)C)c(C)c1  HCT-15 colon     > 100 µM
16  COc1cc2c(cc1OC)C(=O)C(C1=C(SC(=N)N)C(=O)c3cc(OC)c(OC)cc31)C2 (stereo unspecified)  HCT-15 colon     > 100 µM
17  O=C(O)C1(Cc2cccc(Nc3nccs3)n2)CCC(Oc2cccc(Cl)c2F)CC1 (stereo unspecified)  HCT-15 colon      25.2 µM
18              O=[N+]([O-])c1ccc2ncccc2c1Cl  HCT-15 colon      14.4 µM
19  COc1ccc(-c2cc(-c3cc(OC)c(OC)c(OC)c3)c(C#N)c(N3CCOCC3)n2)cc1O  HCT-15 colon    > 60.3 µM
20  COC12CC(=O)C(C(C)=O)=C(O)C1(C)c1c(OC(C)=O)c(C)c(O)c(C(C)=O)c1O2 (stereo unspecified)  HCT-15 colon     > 100 µM
21  C=C1C(=O)O[C@H]2[C@H]1CC/C(COC(=O)c1ccc(C#N)cc1)=C\CC[C@@]1(C)O[C@@H]21  HCT-15 colon      3.22 µM
